- assayedTarget: T1, human TL1A extracellular domain with N-terminal HIS and FLAG tag (human, UniProt O95150 72-251)
- T1 construct: the whole entry is named
- T1 sequence: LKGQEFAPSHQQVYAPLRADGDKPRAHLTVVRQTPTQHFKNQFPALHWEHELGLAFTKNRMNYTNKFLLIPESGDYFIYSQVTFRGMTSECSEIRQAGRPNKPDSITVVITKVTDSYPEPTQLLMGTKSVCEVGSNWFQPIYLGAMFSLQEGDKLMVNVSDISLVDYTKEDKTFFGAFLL
- assayInfo: SPR Run 4, purified Ab captured on Protein A, TL1A 5 ug/mL, timepoint 44

| binder | TL1A Binding Level (Early) |
| --- | --- |
| 320-345 (antibody, human IgG1, name in Kabat numbering, V domains shown, human IgG1, lambda) VH: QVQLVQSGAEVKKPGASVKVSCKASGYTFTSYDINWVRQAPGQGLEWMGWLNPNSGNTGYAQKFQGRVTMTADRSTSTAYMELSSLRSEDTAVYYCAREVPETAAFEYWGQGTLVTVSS VL: QSVLTQPPSVSGAPGQRVTISCTSSSSDIGAGLGVHWYQQLPGTAPKLLIEGYYNRPSGVPDRFSGSKSGTSASLTITGLLPEDEGDYYCQSYDKTLSALFGGGTKLTVLG | 163 RU |
| 320-320 (antibody, human IgG1, name in Kabat numbering, V domains shown, human IgG1, lambda) VH: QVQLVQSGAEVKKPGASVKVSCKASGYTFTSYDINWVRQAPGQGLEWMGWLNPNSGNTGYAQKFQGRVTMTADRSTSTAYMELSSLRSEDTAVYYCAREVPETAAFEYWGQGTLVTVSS VL: QSVLTQPPSVSGAPGQRVTISCTSSSSDIGAGLGVHWYQQLPGTAPKLLIEGYYNRPSGVPDRFSGSKSGTSASLTITGLLPEDEGDYYCQDYDGTLSALFGGGTKLTVLG | 31 RU |
| 320-356 (antibody, human IgG1, name in Kabat numbering, V domains shown, human IgG1, lambda) VH: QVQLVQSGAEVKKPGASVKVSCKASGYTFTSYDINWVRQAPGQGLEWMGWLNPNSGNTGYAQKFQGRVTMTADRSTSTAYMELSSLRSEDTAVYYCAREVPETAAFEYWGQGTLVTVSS VL: QSVLTQPPSVSGAPGQRVTISCTSSSSDIGAGLGVHWYQQLPGTAPKLLIEGYYNRPSGVPDRFSGSKSGTSASLTITGLLPEDEGDYYCQSYDGWLSALFGGGTKLTVLG | 109 RU |
